These entries and their values trace back to ChEMBL document CHEMBL3867454.

# Test system: 1321N1 (Homo sapiens)
# PROCEDURE_DETAILS: Cytotoxicity against human 1321N1 cells assessed as induction of cell death measured after 24 hrs
# SETTINGS: pooled result: one value given for 2 cell lines, strains, targets or settings
The following compounds are listed with their measured MNTC at 24 h values.

# CPD_SMILES, UNITS_SYMBOL, MNTC at 24 h
measured = [
    ("COc1cc2c(c(O)c1C/C=C(\\C)CC/C=C(\\C)C(=O)O)COC2=O", "µM", 57.8),
    ("COc1cc2c(c(O)c1C/C=C(\\C)CCC=C(C)C)CN(CCc1c[nH]c3ccccc13)C2=O", "µM", 19.6),
    ("COc1cc2c(c(O)c1C/C=C(\\C)CCC=C(C)C)CN(CCc1ccc(O)cc1)C2=O", "µM", 68.9),
]
